Every entry's value here was drawn from paper PMC6949950.

- Tested on: boar spermatozoa
- METHOD_SUMMARY: cells
- Assay type: cell-based
- CONDITIONS: Spermatozoa, 24 h; boar sperm, exposure 1 day; SD between three measurements < ± 35%; read-out: EC50 SMID 1 day
RECORDED_ENDPOINT: EC50

Value of measured EC50 for the entry CC1(C)C=Cc2c(ccc3c2[N+]([O-])=C2C3=C[C@@]34NC(=O)[C@]5(CCCN5C3=O)C[C@H]4C2(C)C)O1 [Avrainvillamide] : > 2 µg/mL

Summary for this compound, C[C@@H]1Cc2c(Cl)cc(C(=O)N[C@@H](Cc3ccccc3)C(=O)O)c(O)c2C(=O)O1 [Ochratoxin A] : EC50 is > 50 µg/mL

The compound CC(C)=C[C@H]1C[C@H](C)[C@]2(CC[C@]3(C)C[C@H]4[C@H](C(=O)C[C@@]4(C)O)/C(C=O)=C\C[C@H]32)O1 [Ophiobolin A] showed EC50 equal to 2 µg/mL

Briefly, EC50 measured for Oc1cc(Cl)ccc1Oc1ccc(Cl)cc1Cl [triclosan] : 2 µg/mL
